tested on: MCF7; experiment: Cytotoxicity against human MCF7 cells after 72 hrs by XTT assay; type: functional; settings: MCF7, 72 h
Classification by GI50 follows these ranges: lower band (below 3 µM), central band (3 µM to below 10 µM), upper band (10 µM or more)

O=C1c2ccccc2/C(=N/O)c2ccoc21	upper band

Bin? `CCN(CC)CCOC(=O)c1ccc(/N=C2/c3ccccc3/C(=N/c3ccc(C(=O)OCCN(CC)CC)cc3)c3occc32)cc1`
lower band

Bin? `CC[C@@]1(O)C(=O)OCc2c1cc1n(c2=O)Cc2cc3ccccc3nc2-1`
lower band

Bin? `O=C1C(=O)c2ccoc2-c2ccccc21`
central band
